test system: Dengue virus; test: Inhibition of Dengue virus NS2B-NS3 protease using Abz-NleKRRS-3-(NO2)Y as substrate at 50 uM preincubated for 15 mins measured every sec for 15 mins by fluorimetric analysis
The source made the active and inactive calls. The rule behind the calls is not given here.
QUANTITY: inhibition

Below, 4 molecules whose answers are already recorded.
### Prompt Dear colleague, I am looking for the recorded inhibition of the following molecule: O=C1NC(=S)S/C1=C\c1ccc(Br)s1
### Response 50%

### Prompt I would be grateful if you could share the reported inhibition for O=C1NC(=S)N/C1=C\c1cc(Br)cs1 .
### Response 42%

### Prompt Which inhibition reading was recorded for the molecule O=C1NC(=S)N/C1=C\c1ccc(O)cc1 ?
### Response 48%

### Prompt Quick one: inhibition for O=C1NC(=O)/C(=C/c2ccccc2)N1 ?
### Response 38%

New cases:
### Prompt Given O=C1NC(=S)S/C1=C\c1ccc(O)c(O)c1 , state its recorded inhibition.
### Response 50%

### Prompt Param item = O=C1NC(=O)/C(=C/c2sccc2Cl)S1 ; retrieve measured inhibition.
### Response 23%

### Prompt For C/C(=C1/NC(=S)NC1=O)c1ccc(F)cc1 , what is its reported inhibition?
### Response inactive

### Prompt Could you tell me which inhibition is on file for Cc1ccc(/C=C2\SC(O)=NC2=O)cc1 ?
### Response 17%

### Prompt Which value of inhibition has been reported for O=C1NC(=S)N/C1=C\c1ccc([N+](=O)[O-])cc1 in the records?
### Response 35%

### Prompt Could you tell me which inhibition is on file for CCCC/C=C/C1NC(=S)NC1=O (stereo not drawn) ?
### Response inactive

### Prompt Query (molecule): O=C1NC(=S)N/C1=C\c1cnc[nH]1 ; field requested: inhibition
### Response 29%

### Prompt So what does the record say about inhibition for O=C1NC(=S)N/C1=C\C=C\c1ccco1 ?
### Response 37%

### Prompt Can you share its inhibition? I mean this molecule: CC(=O)N1C(=S)NC(=O)[C@@H]1Cc1ccccc1
### Response inactive

### Prompt What value of inhibition has been recorded for this entry: O=C1NC(=S)N/C1=C\c1ccc(O)c(O)c1
### Response 36%

### Prompt So what does the record say about inhibition for COc1cc(/C=C2\SC(=S)NC2=O)ccc1O ?
### Response 42%

### Prompt Look at this molecule and give its reported inhibition. O=C1NC(=S)N/C1=C\c1ccc2ccccc2c1
### Response 46%

### Prompt Return reported inhibition; argument: O=C1NC(=O)/C(=C/c2sccc2Br)N1
### Response 13%

### Prompt Name the reported inhibition value associated with the molecule COc1cc(/C=C2\NC(=S)NC2=O)ccc1O
### Response 38%

### Prompt # get_value(readout='inhibition', item= O=C1NC(=O)[C@H](Cc2ccccc2)N1 )
### Response inactive

### Prompt Param item = O=C1NC(=S)N/C1=C\c1sccc1Cl ; retrieve measured inhibition.
### Response 46%

### Prompt Please look up its inhibition: CC(=O)N1C(=S)NC(=O)[C@@H]1Cc1c[nH]c2ccccc12
### Response inactive
